# Target Or Test System: T1, human IL-33 (mm2) (human, UniProt O95760 112-270)
# T1 chain: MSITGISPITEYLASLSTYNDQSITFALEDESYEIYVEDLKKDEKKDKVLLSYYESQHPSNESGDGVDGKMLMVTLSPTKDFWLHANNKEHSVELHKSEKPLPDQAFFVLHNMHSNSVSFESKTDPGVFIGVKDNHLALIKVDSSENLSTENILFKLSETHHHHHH
# Assay Details: cell-based or functional assay
Known IC50, HEK293 ST2 NFkB of a selection of binders
// note: answer is a bare numeric in pM

Below are worked cases with known answers.
Binder: IL33-153 (antibody, human IgG1, kappa, V domains shown) VH: EVQLVESGGGLVQPGGSLRLSCAASGFTFSSYWMYWVRQAPGKGLEWVASITPNAGEDYYPDSVKGRFTISRDNAKNSLYLQMNSLRAEDTAVYYCARGHYYYTSYSLGYWGQGTLVTVSS VL: DIQMTQSPSSLSASVGDRVTITCKASQNINKHLDWYQQKPGKAPKLLIYFTNNLQTGVPSRFSGSGSGTDFTLTISSLQPEDFATYYCFQYNQGWTFGGGTKVEIKR
Result Number: 87

Binder: IL33-157 (antibody, human IgG1, kappa, V domains shown) VH: EVQLVESGGGLVQPGGSLRLSCAASGFTFSSYWMYWVRQAPGKGLEWVAAITPNAGEDYYPDSVKGRFTISRDNAKNSLYLQMNSLRAEDTAVYYCARGHYYYTSYSLGYWGQGTLVTVSS VL: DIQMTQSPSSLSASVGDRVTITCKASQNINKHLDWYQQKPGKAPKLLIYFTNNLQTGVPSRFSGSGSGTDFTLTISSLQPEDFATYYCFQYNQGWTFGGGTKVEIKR
Result Number: 118

Binder: IL33-155 (antibody, human IgG1, kappa, V domains shown) VH: EVQLVESGGGLVQPGGSLRLSCAASGFTFSSYWMYWVRQAPGKGLEWVAAITPNGGEDYYPDSVKGRFTISRDNAKNSLYLQMNSLRAEDTAVYYCARGHYYYTSYSLGYWGQGTLVTVSS VL: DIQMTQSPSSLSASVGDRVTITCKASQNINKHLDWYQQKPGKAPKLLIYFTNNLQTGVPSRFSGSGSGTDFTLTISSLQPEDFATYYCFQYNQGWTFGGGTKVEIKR
Result Number: 171

Binder: IL33-169 (antibody, human IgG1, kappa, V domains shown) VH: EVQLVESGGGLVQPGGSLRLSCAASGFTFSSYWMYWVRQAPGKGLEWVAAITPNGGEDYYPDSVKGRFTISRDNAKNSLYLQMNSLRAEDTAVYYCARGHYYYTSYSLGYWGQGTLVTVSS VL: DIQMTQSPSSLSASVGDRVTITCKASQNINKHLDWYQQKPGKAPKLLIYFTNNLQTGVPSRFSGSGSGTDFTLTISSLQPEDFATYYCFQYNNGWTFGGGTKVEIKR
Result Number: 71

Binder: IL33-170 (antibody, human IgG1, kappa, V domains shown) VH: EVQLVESGGGLVQPGGSLRLSCAASGFTFSSYWMYWVRQAPGKGLEWVAAITPNGGEDYYPESVKGRFTISRDNAKNSLYLQMNSLRAEDTAVYYCARGHYYYTSYSLGYWGQGTLVTVSS VL: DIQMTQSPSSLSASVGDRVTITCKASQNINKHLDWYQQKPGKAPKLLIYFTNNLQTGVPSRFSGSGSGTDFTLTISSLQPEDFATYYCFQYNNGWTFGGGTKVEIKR
Result Number: 176

Memo: IL33-188 (antibody, human IgG1, kappa, V domains shown) VH: EVQLVESGGGLVQPGGSLRLSCAASGFTFSSYWMYWVRQAPGKGLEWVAAITPNAGETYYPESVKGRFTISRDNAKNSLYLQMNSLRAEDTAVYYCARGHYYYTSYSLGYWGQGTLVTVSS VL: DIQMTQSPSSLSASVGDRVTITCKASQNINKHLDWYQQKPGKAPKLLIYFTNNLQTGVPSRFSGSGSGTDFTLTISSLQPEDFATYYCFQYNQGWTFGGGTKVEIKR , reported IC50, HEK293 ST2 NFkB: 147

IC50, HEK293 ST2 NFkB measured on IL33-154 (antibody, human IgG1, kappa, V domains shown) VH: EVQLVESGGGLVQPGGSLRLSCAASGFTFSSYWMYWVRQAPGKGLEWVASITPNAGEDYYPESVKGRFTISRDNAKNSLYLQMNSLRAEDTAVYYCARGHYYYTSYSLGYWGQGTLVTVSS VL: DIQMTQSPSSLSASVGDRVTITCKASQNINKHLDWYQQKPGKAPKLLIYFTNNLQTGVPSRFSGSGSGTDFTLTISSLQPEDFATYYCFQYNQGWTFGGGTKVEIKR = 188

Record IL33-168 (antibody, human IgG1, kappa, V domains shown) VH: EVQLVESGGGLVQPGGSLRLSCAASGFTFSSYWMYWVRQAPGKGLEWVASITPNAGEDYYPESVKGRFTISRDNAKNSLYLQMNSLRAEDTAVYYCARGHYYYTSYSLGYWGQGTLVTVSS VL: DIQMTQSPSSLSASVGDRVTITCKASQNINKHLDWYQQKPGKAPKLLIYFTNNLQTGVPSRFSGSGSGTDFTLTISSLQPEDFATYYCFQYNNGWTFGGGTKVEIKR . Reported IC50, HEK293 ST2 NFkB: 109

Data point: IL33-171 (antibody, human IgG1, kappa, V domains shown) VH: EVQLVESGGGLVQPGGSLRLSCAASGFTFSSYWMYWVRQAPGKGLEWVAAITPNAGEDYYPDSVKGRFTISRDNAKNSLYLQMNSLRAEDTAVYYCARGHYYYTSYSLGYWGQGTLVTVSS VL: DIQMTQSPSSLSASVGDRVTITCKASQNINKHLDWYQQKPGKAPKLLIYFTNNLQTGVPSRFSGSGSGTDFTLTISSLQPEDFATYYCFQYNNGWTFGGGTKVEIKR ; IC50, HEK293 ST2 NFkB = 145

# binder IL33-186 (antibody, human IgG1, kappa, V domains shown) VH: EVQLVESGGGLVQPGGSLRLSCAASGFTFSSYWMYWVRQAPGKGLEWVAAITPNGGETYYPESVKGRFTISRDNAKNSLYLQMNSLRAEDTAVYYCARGHYYYTSYSLGYWGQGTLVTVSS VL: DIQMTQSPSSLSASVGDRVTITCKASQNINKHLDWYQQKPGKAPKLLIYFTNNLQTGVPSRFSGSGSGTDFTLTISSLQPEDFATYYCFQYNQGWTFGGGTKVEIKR ; its IC50, HEK293 ST2 NFkB = 109
